ASSAY TEXT: Stability of cannabinoid and Vitamin E components of Beverage 2 (AB Red) stored at 8° C. and 21-25° C., LCMSMS over 570 days
CONDITION INFO: 8° C., 120 days
Reported Stability of Cannabinoids in AB Red values for the following molecules.
READOUT TYPE: Stability of Cannabinoids in AB Red (µg/mL)

CCCCCc1cc(O)c2c(c1)OC1(C)CCC3C1C2C3(C)C (centres unmarked) :: 0.488
CCCCCc1cc(O)c2c(c1)OC(C)(CCC=C(C)C)C=C2 (centres unmarked) :: 0.289
CCCCCc1cc(O)c2c(c1)OC(C)(C)[C@@H]1CCC(C)=C[C@@H]21 [D9 THC, delta-9-tetrahydrocannabinol, reference compound] :: 12.4
CCCCCc1cc(O)c2c(c1)OC(C)(C)c1ccc(C)cc1-2 :: 2.69
CCCCCc1cc2c(c(O)c1C(=O)O)[C@@H]1C=C(C)CC[C@H]1C(C)(C)O2 [D9 THCA, delta-9-tetrahydrocannabinolic acid] :: 1.30

---

ASSAY TEXT: Stability of cannabinoid and Vitamin E components of Beverage 1 (AB White) stored at 8° C. and 21-25° C., LCMSMS over 570 days
Type: physicochemical
CONDITION INFO: beverage stored at 21-25° C., day 2
Reported Stability in AB White, 21-25° C. (content by LCMSMS) values for the following molecules.
READOUT TYPE: Stability in AB White, 21-25° C. (content by LCMSMS) (µg/mL)

CCCCCc1cc(O)c2c(c1)OC(C)(C)c1ccc(C)cc1-2 :: 2.81
CCCCCc1cc2c(c(O)c1C(=O)O)[C@@H]1C=C(C)CC[C@H]1C(C)(C)O2 [D9 THCA, delta-9-tetrahydrocannabinolic acid] :: 0.938
C=C(C)[C@@H]1CCC(C)=C[C@H]1c1c(O)cc(CCCCC)c(C(=O)O)c1O :: 1.70
CCCCCc1cc(O)c2c(c1)OC(C)(C)[C@@H]1CCC(C)=C[C@@H]21 [D9 THC, delta-9-tetrahydrocannabinol, reference compound] :: 12.0
C=C(C)[C@@H]1CCC(C)=C[C@H]1c1c(O)cc(CCC)cc1O :: 0.148

---

Reported Stability of Cannabinoids in AB Red values for the following molecules.
ASSAY TEXT: Stability of cannabinoid and Vitamin E components of Beverage 2 (AB Red) stored at 8° C. and 21-25° C., LCMSMS over 570 days
CONDITION INFO: 8° C., 2 days
READOUT TYPE: Stability of Cannabinoids in AB Red

CCCc1cc(O)c2c(c1)OC(C)(C)[C@@H]1CCC(C)=C[C@@H]21 [THCV, delta-9-tetrahydrocannabivarin] :: 3.17 µg/mL
C=C(C)[C@@H]1CCC(C)=C[C@H]1c1c(O)cc(CCCCC)c(C(=O)O)c1O :: 1.66 µg/mL
CCCCCc1cc2c(c(O)c1C(=O)O)[C@@H]1C=C(C)CC[C@H]1C(C)(C)O2 [D9 THCA, delta-9-tetrahydrocannabinolic acid] :: 1.34 µg/mL
CCCCCc1cc(O)c2c(c1)OC(C)(C)c1ccc(C)cc1-2 :: 2.74 µg/mL
CCCCCc1cc(O)c2c(c1)OC(C)(C)[C@@H]1CCC(C)=C[C@@H]21 [D9 THC, delta-9-tetrahydrocannabinol, reference compound] :: 13.0 µg/mL
CCCCCc1cc(O)c(C/C=C(\C)CCC=C(C)C)c(O)c1 :: 4.79 µg/mL
CCCCCc1cc(O)c2c(c1)OC1(C)CCC3C1C2C3(C)C (stereo not shown) :: 0.508 µg/mL
